B1: CPEB3 Ribozyme (parent)
chain: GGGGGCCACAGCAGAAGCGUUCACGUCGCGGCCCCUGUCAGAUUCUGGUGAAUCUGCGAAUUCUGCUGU

variants of: B1; test: self-cleavage, relative activity (ratio to wild type); higher = more cleavage; co-transcriptional
test-readout: self-cleavage
Give bare numbers.

Recorded self-cleavage, per entry:
- input-sequence: "GGGGGCCGCAGCAGAAGCGGUCACGUCGCGGCCCCUGUCAGAUUCUGGUGAAUCUGCGAAUUCUGCUGU [A8G U20G]"
  test-value: 0.0536
- input-sequence: "GGGGGCCACAGCAGAAGCGUUCACGUCGCGGCCCCUGUCAGAGUCUGGUGAAUCGGCGAAUUCUGCUGU [U43G U55G]"
  test-value: 0.264
- input-sequence: "GGGGGCCACAGCAGAAGCGUCCACGUCGCGGCCCCUGUCAGAUUCUGGUGAAUCUGCGAAUUCGGCUGU [U21C U64G]"
  test-value: 0.75
- input-sequence: "GGGGGCCACAGCAGAAGCGUUCACGUCGCGGCCCGUGUCAGAUUCUGGUGAAUCUGCGAAUGCUGCUGU [C35G U62G]"
  test-value: 0.308
- input-sequence: "GGGGGCCACAGAAGAAUCGUUCACGUCGCGGCCCCUGUCAGAUUCUGGUGAAUCUGCGAAUUCUGCUGU [C12A G17U]"
  test-value: 0.0724

Hey, can you go through the list below and give me self-cleavage for every item?
1. GGGGGCCACAGCAGAAGCGUUCACGUCGCGGCCUCUGUCAGGUUCUGGUGAAUCUGCGAAUUCUGCUGU [C34U A42G]
2. GGGGGCCACAACAGAAGCGUUCACGUCGCGGCGCCUGUCAGAUUCUGGUGAAUCUGCGAAUUCUGCUGU [G11A C33G]
3. CGGGGCCACAGCAGAAGCGUUCACGUCGCGGCCCCUGUCAGAUUCUGGUGAAUCUACGAAUUCUGCUGU [G1C G56A]
4. GGGGCCGACAGCAGAAGCGUUCACGUCGCGGCCCCUGUCAGAUUCUGGUGAAUCUGCGAAUUCUGCUGU [G5C C7G]
5. GGGGGCCACAGCAGAAGCGUUCACGUCGCGGCCCCUGUCAGAUUCUUGUGAAUCUGCGAAUUCUCCUGU [G47U G65C]
6. GGGGGCCACAGGAGAAGCGUUCACGUCGCGGCCCCUGUCAGAUUCUGGUGAAUCUGUGAAUUCUGCUGU [C12G C57U]
7. GGGGGCCACAGCAUAAGCGUUCACGUCGCGGCCCCUGUCAGAUUGUGGUGAAUCUGCGAAUUCUGCUGU [G14U C45G]
8. AGGGGCCACAGCAGAAGCGUUCACGUCGCGGCCCCUGUCAGAUUCUGGUGAAUCUGCGAAUUCUUCUGU [G1A G65U]

Response line:
[0.932, 0.733, 0.223, 0.293, 0.736, 0.336, 0.62, 0.106]

Hey, can you go through the list below and give me self-cleavage for every item?
1. GGGGGCCACAGCAGAAGCGUUCACGUCGCGGCCCCUGUCAGAUUCUGGUGAAUCUGCGAAUUGUGCUGU [C63G]
2. GGGGGCCACAGCAGAAGCGUUCUCGUCGCGGCCCCUGUCAGAUUCUGGUGAAUCUGCGAAUUCUCCUGU [A23U G65C]
3. GGGGGCCACAGGAGAAGCGUUCACGUCGCGCCCCCUGUCAGAUUCUGGUGAAUCUGCGAAUUCUGCUGU [C12G G31C]
4. GGGGGCCACAGCAGAAGCGUUCACGUCGCGGCCCCUCUCAGAUUCUGGUAAAUCUGCGAAUUCUGCUGU [G37C G50A]
5. GGGGGCCACAGCAGAAGCGUUCACUUCGCGGCCCCCGUCAGAUUCUGGUGAAUCUGCGAAUUCUGCUGU [G25U U36C]
6. GGGGGCCACAGCAGAAGCGUUCACGUCGCGGCCCCUGUCAGGUUCUGGUGAAACUGCGAAUUCUGCUGU [A42G U53A]
7. GGGGGCCACAGCAGAAGCGUUCACGUCGCGGCCCCUGUCAGAUUCUGGUGAGUCUGCGAAUUCUGAUGU [A52G C66A]

Response line:
1: 0.87; 2: 0.698; 3: 0.217; 4: 0.257; 5: 0.103; 6: 0.895; 7: 0.845

Hey, can you go through the list below and give me self-cleavage for every item?
1. GGGGGCCACACCAGAAGCGUUCACGUCGCGGCCCCUGUCAGAUUCUGGUGAAUCUGCGAAUUCUGCGGU [G11C U67G]
2. GGGGGCCCCAGCAGAAGCGUUCACGUCGCGGCCCCUGUCAGAUUCUGGUGAAUCUGCGAAUUCUGCUGA [A8C U69A]

Response line:
1: 0.93; 2: 1.01
